Recorded values, source ChEMBL document CHEMBL3988442.

SYSTEM UNDER TEST: Tyrosyl-tRNA synthetase, putative (Trypanosoma cruzi (strain CL Brener)) (UniProt Q4DSP6)
Sequence (Q4DSP6 as listed by the source): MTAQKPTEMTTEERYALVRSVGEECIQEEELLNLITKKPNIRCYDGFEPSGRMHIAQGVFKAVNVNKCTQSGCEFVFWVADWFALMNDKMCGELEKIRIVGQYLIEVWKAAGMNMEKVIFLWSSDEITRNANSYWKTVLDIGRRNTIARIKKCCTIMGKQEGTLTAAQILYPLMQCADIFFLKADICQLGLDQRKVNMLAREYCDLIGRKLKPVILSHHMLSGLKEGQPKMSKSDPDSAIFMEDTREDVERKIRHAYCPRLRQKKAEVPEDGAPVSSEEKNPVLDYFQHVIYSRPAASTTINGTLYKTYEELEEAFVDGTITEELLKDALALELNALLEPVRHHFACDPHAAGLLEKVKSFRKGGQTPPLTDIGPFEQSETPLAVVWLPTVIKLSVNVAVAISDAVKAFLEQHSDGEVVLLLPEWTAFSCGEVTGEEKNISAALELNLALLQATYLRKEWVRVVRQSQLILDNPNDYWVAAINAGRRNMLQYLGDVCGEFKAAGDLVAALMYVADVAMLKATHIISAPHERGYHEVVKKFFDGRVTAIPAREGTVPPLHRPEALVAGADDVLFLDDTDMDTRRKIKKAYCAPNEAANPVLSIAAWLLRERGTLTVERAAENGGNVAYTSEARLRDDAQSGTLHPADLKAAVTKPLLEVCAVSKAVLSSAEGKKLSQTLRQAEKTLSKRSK
PROCEDURE DETAILS: Trypanosoma cruzi tyrosyl tRNA synthetase (TcYRS) SOP
Type: functional
Design: scale not given: direction of the effect not stated beside the values
APPLIED CONDITIONS: 30 µM
Measured Percent Effect, listed per entry for reference.
PROPERTY NAME: Percent Effect (%)

INSERT INTO results (molecule, readout_value) VALUES
  ('Cn1nc2c(cc1=O)CN(Cc1nnc(-c3ccc(F)cc3)o1)CC2', 6.02),
  ('Cc1nc(C(C)(C)NC(=O)Nc2cccc(C#N)c2)no1', 15),
  ('Cn1cc(C(=O)N2CCCC(n3cccn3)C2)c2ccccc21 (stereo unspecified)', 5.13),
  ('Cc1ccc(S(=O)(=O)N2CCC3(CC(C(=O)NCC4CC4)=NO3)C2)cc1 (stereo unspecified)', 7.69),
  ('Cc1noc(NC(=O)c2ccc(Br)s2)n1', 1.24),
  ('Cc1nc(CN2CCN(Cc3nccn3C)CC2)no1', 15.4);

###

SYSTEM UNDER TEST: Ubiquitin-activating enzyme e1, putative (Leishmania donovani (strain BPK282A1)) (UniProt E9BSI1)
Sequence (E9BSI1 as listed by the source): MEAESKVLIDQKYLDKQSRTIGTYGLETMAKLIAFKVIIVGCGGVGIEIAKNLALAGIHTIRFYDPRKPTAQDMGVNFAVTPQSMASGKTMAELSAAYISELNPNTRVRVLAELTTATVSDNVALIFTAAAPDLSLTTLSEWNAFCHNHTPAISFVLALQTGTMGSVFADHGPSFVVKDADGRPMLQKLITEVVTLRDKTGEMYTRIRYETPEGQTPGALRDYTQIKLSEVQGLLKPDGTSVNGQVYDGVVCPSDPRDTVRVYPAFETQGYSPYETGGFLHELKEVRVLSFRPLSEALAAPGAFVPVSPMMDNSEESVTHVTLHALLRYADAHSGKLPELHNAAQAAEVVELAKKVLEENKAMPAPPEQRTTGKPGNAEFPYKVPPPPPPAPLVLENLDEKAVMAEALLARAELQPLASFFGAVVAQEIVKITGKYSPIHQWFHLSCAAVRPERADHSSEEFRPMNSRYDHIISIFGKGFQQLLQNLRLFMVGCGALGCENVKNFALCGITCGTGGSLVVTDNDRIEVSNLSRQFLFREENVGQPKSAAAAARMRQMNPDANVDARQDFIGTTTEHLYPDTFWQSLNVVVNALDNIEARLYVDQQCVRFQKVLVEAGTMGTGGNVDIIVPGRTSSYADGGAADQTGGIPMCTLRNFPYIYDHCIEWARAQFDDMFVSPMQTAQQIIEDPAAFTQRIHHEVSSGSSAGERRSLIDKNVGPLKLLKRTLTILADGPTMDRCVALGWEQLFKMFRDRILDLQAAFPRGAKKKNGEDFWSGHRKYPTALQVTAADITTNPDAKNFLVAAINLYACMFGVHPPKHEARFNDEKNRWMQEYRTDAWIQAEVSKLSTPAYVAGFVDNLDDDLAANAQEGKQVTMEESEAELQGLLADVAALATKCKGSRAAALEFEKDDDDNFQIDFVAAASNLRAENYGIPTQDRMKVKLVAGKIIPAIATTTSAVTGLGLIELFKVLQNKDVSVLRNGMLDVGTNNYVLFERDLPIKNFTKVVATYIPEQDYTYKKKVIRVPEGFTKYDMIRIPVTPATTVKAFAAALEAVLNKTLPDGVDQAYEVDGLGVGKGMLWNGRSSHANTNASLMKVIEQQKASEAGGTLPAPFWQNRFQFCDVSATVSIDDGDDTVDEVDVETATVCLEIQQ
PROCEDURE DETAILS: Leishmania donovani Ubiquitin Activating Enzyme (LdE1)
Format: functional
Set-up: scale not given: direction of the effect not stated beside the values
APPLIED CONDITIONS: 30 µM
Entries with a potency or affinity are not part of this list.
PROPERTY NAME: Percent Effect (%)

INSERT INTO results (compound, property_name, readout_value) VALUES
  ('Cc1n[nH]c(C)c1C1COCCN1C(=O)c1cc(Cl)c[nH]1 (centres undefined)', 'Percent Effect', 2.56),
  ('CN(C)c1cc2c(nn1)CCN(C(=O)Cc1noc3ccccc13)C2', 'Percent Effect', 0),
  ('Cc1[nH]/c(=N\C(=O)c2csc(NCC(C)C)n2)sc1C', 'Percent Effect', 5.41),
  ('CN(C)CC(=O)N1CCC2(CCN(Cc3ccccn3)C2=O)C1 (centres undefined)', 'Percent Effect', -1.3),
  ('CC(C)N(Cc1nc2c(cnn2C)c(=O)[nH]1)c1ccccc1', 'Percent Effect', 10.3),
  ('C[C@@H]1CN(C(=O)c2cnc(C3CC3)nc2)CC[C@@]1(O)C1CCOCC1', 'Percent Effect', 10.8),
  ('CCc1nccn1C1CCCN(C(=O)c2csc(COC)n2)C1 (centres undefined)', 'Percent Effect', 10.4),
  ('Cc1ccccc1CC(=O)N(C)C1CCN(c2ccccn2)CC1', 'Percent Effect', 10.7),
  ('CS(=O)(=O)c1snnc1C1CCN(Cc2ccncc2)CC1', 'Percent Effect', 4.05),
  ('Cc1nc(CN2C(=O)CC[C@@H]3[C@H]2CCN3C(=O)NC2CC2)cs1', 'Percent Effect', 16.2),
  ('c1csc(N2CCCN(Cc3nc(C4CC4)no3)CC2)n1', 'Percent Effect', 10.4),
  ('Cc1ncsc1C(=O)NC1CCN(Cc2ccc(C#N)cc2)CC1', 'Percent Effect', 18.2),
  ('COc1cc(CNCc2c(C(C)C)nn(C)c2N(C)C)ccn1', 'Percent Effect', 15.8),
  ('O=C(O)c1nnn(-c2ccc(OC(F)(F)F)cc2)c1-c1ccncc1', 'Percent Effect', 21.1),
  ('Cc1cn2nc(N3CCCC3Cn3nc(C)cc3C)sc2n1 (centres undefined)', 'Percent Effect', 6.33),
  ('CC(c1ccc(Cl)cc1)N1CCN(CCS(C)(=O)=O)CC1 (centres undefined)', 'Percent Effect', 5.41),
  ('Cc1ccc(CN2CCc3ncnc(-c4ccc(F)cc4)c3CC2)o1', 'Percent Effect', 5.33),
  ('COCCOc1cccc(C(=O)N2CCCC(n3cccn3)C2)c1 (centres undefined)', 'Percent Effect', 2.6),
  ('CCc1nc(CN2CCCN(C(=O)c3cn[nH]c3CC)CC2)cs1', 'Percent Effect', 17.9),
  ('FC(F)(F)Cc1noc(CN2CCCC2c2noc(C3CC3)n2)n1 (centres undefined)', 'Percent Effect', 13.5),
  ('Cn1nc(C(=O)N2CCCCC2c2nc3cc(F)ccc3[nH]2)ccc1=O (centres undefined)', 'Percent Effect', 15.3),
  ('Cc1cc(S(=O)(=O)N2CCC(S(C)(=O)=O)CC2)ccc1F', 'Percent Effect', 5.2),
  ('CCNC(=O)c1ncn2c1CN(C)S(=O)(=O)c1ccccc1-2', 'Percent Effect', 2.74),
  ('CC(Cn1cccn1)NC(=O)N1CCN(Cc2cccnc2)CC1 (centres undefined)', 'Percent Effect', 7.79);
